System: MCF7
assay.details: Induction of apoptosis in human MCF7 cells assessed as early apoptotic cells at IC50 after 48 hrs by annexinV/propidium iodide staining based fluorescence analysis (reference value: 36.1 %)
Format: functional
recorded.endpoint: Activity
Output should be the measured figure followed by the unit it is expressed in.

Ask: Given `CCCCCc1ccc(C#Cc2cn(CCC(COC(C)=O)COC(C)=O)c(=O)n(C(=O)c3ccccc3)c2=O)cc1` , state its recorded Activity.
Result: 28.2%

Ask: # Activity lookup, item `O=c1[nH]c(=O)n(CCC(CO)CO)cc1-c1cccs1`
Result: 54.9%

Ask: Which value of Activity has been reported for `O=c1[nH]c(=O)n(CCC(CO)CO)cc1-c1ccco1` in the records?
Result: 39.3%

Ask: What does the data say about its Activity? Entry: `CC(=O)OCC(CCn1cc(C#CC2CC2)c(=O)n(C(=O)c2ccccc2)c1=O)COC(C)=O`
Result: 20.9%
